src = patent EP4659811A1

- target_or_test_system: VP1 capsid protein on BKV pseudovirions of genotype IVc2 (A-66H; AB369093) (BK virus genotype IVc2 (A-66H))
- test_description: cell-based or functional assay
observed_property: Neutralization PSV IC50 (µg/mL)
Dear colleague, please return just the value in µg/mL, with no unit written.

binder | Neutralization PSV IC50 (µg/mL)
antibody G7P7 (antibody, V domains shown) VH: QVQLQESGPGLVRPSQTLSLTCTVSGGSMTSGSYYWSWIRQPAEKGLEWIGRIYTSGRTDYNPSLKSRVAMSIDTSKNQFSLRLTSVTAADTAVYYCARWGDSSAYYYVGDPWGRGTPVTVSS VL: DIQMTQSPSSLSASIGDRVTITCRASQNINTYLYWYQQKPGKAPQLLIYAASNLQTGAPSRFSGSGSGTDFTLTISSLQPADFATYYCQQSFSLPHTFGQGTKLEIK | 0.0036
antibody G8P6 (antibody, V domains shown) VH: QVQLQESGPGLVRPSQTLSLTCTVSGGSMTSGSYYWSWIRQPAEKGLEWIGRIYTSGRTDYNPSLKSRVAMSIDTSKNQFSLRLTSVTAADTAVYYCARWGDSSAYYYVGDPWGRGTTVTVSS VL: DIQMTQSPSSLSASIGDRVTITCRASQNINTYLYWYQQKPGKAPQLLIYAASNLQTGAPSRFSGSGSGTDFTLTISSLQPADFATYYCQQSFSLPHTFGQGTKLEIK | 0.0582
antibody E9P7 (antibody, V domains shown) VH: EVQLVESGGGLVQPGGSLRLSCTASGFTFRSYTMDWVRQAPGKGLEWVSCISGSSNHKYYADSVRGRFTISRDNAKNSLLLQMNSLRAEDSAVYYCAREDDILTPLYGMDVWGPGTTVTVSS VL: EIVLTQSPDTLSLSPGARATLSCRASQSVRSNYLAWYQQKPGQAPRLLIYGASSRATAIPDRFSGSGSGTDFTLTITRLEPEDFAVYYCHQYGSSPRTFGQGTKVEIK | 0.0333
antibody C6P8 (antibody, V domains shown) VH: EVQLVESGGGLVQPGGSLKLSCAASGFTFSGSEIHWVRQASGKGLEWIGRVRSRANRHATGYSESVKGRFTISRDDSKNTASLQLNSLKIEDTAVYYCTGVRGVISRYFAMDVWGQGTTVTVSS VL: SYVLTQTPSVSVAPGQTARITCGGNNIGSNSVHWYQQKPGQAPILVVYDDSERPSGIPERFSGSNSGNTATLTISRVEGGDEADYQCQVWDRRGDLLVFGGGTKLTVL | 1.74
antibody E11P6 (antibody, V domains shown) VH: EVQLVESGGGLVQPGGSLRLSCAASGFTFRSYSMDWVRQAPGKGLEWVSYISGSSNQKYYTDSVRGRFTISRDNAKNSLFLQMNSLRAEDSAVYYCAREDDILTPLYGMDVWGPGTTVTVSS VL: EIVLTQSPDTLSLSPGARATLSCRASQSVRSNYLAWYQQKPGQAPRLLIYGASSRATAIPDRFSGSGSGTDLTLTITRLEPEDFAVYYCHQYASSPRTFGQGTKVEIK | 0.0452

Now turn to the next binder.
For the binder shown here, antibody F3P6 (antibody, V domains shown) VH: QVQLVQSGAEVKKPGASVKVSCKASGYTFTTHIIHWVRQAPGQRLEWMGWINAGNGNTHYSEKFQGRVTLTRDTSASTAYMELSSLRSEDTAIYYCAREDQWLGRSPLEYWGQGTLVTVSS VL: EIVLTQSPGTLSLSPGERATLSCRASQSVSSSYLAWYQHKPGQAPRLLIYGASSRATGIPDRFSGSGSGTDFTLTISRLEPEDFAVYYCQQYGNSYPWTFGQGTKVEIK , give the reported Neutralization PSV IC50.
0.262
